Each record here notes measured Activity.
- Tested on: hTERT-BJ
- assay_procedure: Cytotoxicity against human hTERT-BJ1 cells at 50 uM by acid phosphatase assay relative to control
- Type: cell-based

[
  {
    "record_smiles": "CCN/C(SCC)=C(/C#N)C(=O)Nc1ccc(S(=O)(=O)Nc2onc(C)c2C)cc1",
    "Activity, %": 8.5
  },
  {
    "record_smiles": "C=CCN/C(S[C@@H]1O[C@H](COC(C)=O)[C@H](OC(C)=O)[C@H](OC(C)=O)[C@H]1OC(C)=O)=C(/C#N)C(=O)Nc1ccc(S(=O)(=O)Nc2onc(C)c2C)cc1",
    "Activity, %": 28.6
  },
  {
    "record_smiles": "CCN/C(SC)=C(/C#N)C(=O)Nc1ccc(S(=O)(=O)Nc2onc(C)c2C)cc1",
    "Activity, %": 1.1
  },
  {
    "record_smiles": "C=CCN/C(S[C@@H]1O[C@H](COC(C)=O)[C@@H](OC(C)=O)[C@H](OC(C)=O)[C@H]1OC(C)=O)=C(/C#N)C(=O)Nc1ccc(S(=O)(=O)Nc2onc(C)c2C)cc1",
    "Activity, %": 15.2
  },
  {
    "record_smiles": "CCN/C(S)=C(/C#N)C(=O)Nc1ccc(S(=O)(=O)Nc2onc(C)c2C)cc1",
    "Activity, %": 1.7
  },
  {
    "record_smiles": "CN/C(S[C@@H]1O[C@H](COC(C)=O)[C@H](OC(C)=O)[C@H](OC(C)=O)[C@H]1OC(C)=O)=C(/C#N)C(=O)Nc1ccc(S(=O)(=O)Nc2onc(C)c2C)cc1",
    "Activity, %": 26
  },
  {
    "record_smiles": "CCS/C(NC)=C(\\C#N)C(=O)Nc1ccc(S(=O)(=O)Nc2onc(C)c2C)cc1",
    "Activity, %": 2.7
  }
]
